tested on: NRK; assay: Golgi-disturbing activity in golgi apparatus of rat NRK cells assessed as golgi fragmentation measured after 60 mins following drug washout by Hoechst 3342 staining-based immunofluorescence microscopy; type: functional, cell-based
Active and inactive are the calls of the source. The rule behind the calls is not given here.
Classes used: yes = active, no = inactive

given smiles | tested system | class assignment
CC(=O)[C@H]1O[C@@H]2OC(=O)C[C@@H]2[C@H]1OCc1ccccc1 | NRK | no
C=C([C@@H]1[C@@H](OC(C)=O)O[C@@H]2OC(=O)C[C@@H]21)C(C)(C)C | NRK | no
CC1(C)CCC[C@]2(C)[C@@H](OC(=O)c3ccc(OCC4CC4)cc3OCC3CC3)CC[C@@H]12 | NRK | yes
C=C([C@H]1[C@H]2CC(=O)O[C@H]2O[C@@H]1C(C)=O)C(C)(C)C | NRK | no
CC(=O)O[C@H]1O[C@@H]2OC(=O)C[C@@H]2[C@H]1OCc1ccccc1 | NRK | no

###

system: NRK; test: Golgi-disturbing activity in golgi apparatus of rat NRK cells assessed as reversible golgi fragmentation after 60 mins by Hoechst 3342 staining-based immunofluorescence microscopy; type: functional, cell-based
Active and inactive are the calls of the source. The calls are words filed in the database; no cut-off is given here.
Classes used: active, inactive

given smiles | tested system | class assignment
COc1ccc(C(=O)O[C@H]2CC[C@H]3C(C)(C)CCC[C@]23C)c(OC)c1 | NRK | active
C=C([C@@H]1[C@@H](OC(C)=O)O[C@@H]2OC(=O)C[C@@H]21)C(C)(C)C | NRK | inactive
C=C([C@H]1[C@H]2CC(=O)O[C@H]2O[C@@H]1CO)[C@H]1CC[C@H]2C(C)(C)CCC[C@]12C | NRK | active
CC(=O)O[C@H]1O[C@@H]2OC(=O)C[C@@H]2[C@H]1OCc1ccccc1 | NRK | inactive
CC(=O)[C@H]1O[C@@H]2OC(=O)C[C@@H]2[C@H]1OCc1ccccc1 | NRK | inactive
C=C([C@H]1[C@H]2CC(=O)O[C@H]2O[C@@H]1C(C)=O)C(C)(C)C | NRK | inactive
C=C([C@H]1[C@H]2CC(=O)O[C@H]2O[C@@H]1C(C)=O)[C@H]1CC[C@H]2C(C)(C)CCC[C@]12C | NRK | active

Measured values drawn from ChEMBL document CHEMBL1157652 for this set.
